target: human Cav2.2 α (α1B) subunit, along with the human β3 and α2δ1 auxiliary subunits (Homo sapiens); construct: expressed in transfected cells; experiment: hCav2.2 assay, IonWorks planar array electrophysiology in stable HEK293 cell line; type: cell-based; settings: inhibition by 50% of current elicited by the 1st depolarising pulse; HEK293 cells; read-out: tonic pIC50 (converted)
Sequence (Q00975 whole entry): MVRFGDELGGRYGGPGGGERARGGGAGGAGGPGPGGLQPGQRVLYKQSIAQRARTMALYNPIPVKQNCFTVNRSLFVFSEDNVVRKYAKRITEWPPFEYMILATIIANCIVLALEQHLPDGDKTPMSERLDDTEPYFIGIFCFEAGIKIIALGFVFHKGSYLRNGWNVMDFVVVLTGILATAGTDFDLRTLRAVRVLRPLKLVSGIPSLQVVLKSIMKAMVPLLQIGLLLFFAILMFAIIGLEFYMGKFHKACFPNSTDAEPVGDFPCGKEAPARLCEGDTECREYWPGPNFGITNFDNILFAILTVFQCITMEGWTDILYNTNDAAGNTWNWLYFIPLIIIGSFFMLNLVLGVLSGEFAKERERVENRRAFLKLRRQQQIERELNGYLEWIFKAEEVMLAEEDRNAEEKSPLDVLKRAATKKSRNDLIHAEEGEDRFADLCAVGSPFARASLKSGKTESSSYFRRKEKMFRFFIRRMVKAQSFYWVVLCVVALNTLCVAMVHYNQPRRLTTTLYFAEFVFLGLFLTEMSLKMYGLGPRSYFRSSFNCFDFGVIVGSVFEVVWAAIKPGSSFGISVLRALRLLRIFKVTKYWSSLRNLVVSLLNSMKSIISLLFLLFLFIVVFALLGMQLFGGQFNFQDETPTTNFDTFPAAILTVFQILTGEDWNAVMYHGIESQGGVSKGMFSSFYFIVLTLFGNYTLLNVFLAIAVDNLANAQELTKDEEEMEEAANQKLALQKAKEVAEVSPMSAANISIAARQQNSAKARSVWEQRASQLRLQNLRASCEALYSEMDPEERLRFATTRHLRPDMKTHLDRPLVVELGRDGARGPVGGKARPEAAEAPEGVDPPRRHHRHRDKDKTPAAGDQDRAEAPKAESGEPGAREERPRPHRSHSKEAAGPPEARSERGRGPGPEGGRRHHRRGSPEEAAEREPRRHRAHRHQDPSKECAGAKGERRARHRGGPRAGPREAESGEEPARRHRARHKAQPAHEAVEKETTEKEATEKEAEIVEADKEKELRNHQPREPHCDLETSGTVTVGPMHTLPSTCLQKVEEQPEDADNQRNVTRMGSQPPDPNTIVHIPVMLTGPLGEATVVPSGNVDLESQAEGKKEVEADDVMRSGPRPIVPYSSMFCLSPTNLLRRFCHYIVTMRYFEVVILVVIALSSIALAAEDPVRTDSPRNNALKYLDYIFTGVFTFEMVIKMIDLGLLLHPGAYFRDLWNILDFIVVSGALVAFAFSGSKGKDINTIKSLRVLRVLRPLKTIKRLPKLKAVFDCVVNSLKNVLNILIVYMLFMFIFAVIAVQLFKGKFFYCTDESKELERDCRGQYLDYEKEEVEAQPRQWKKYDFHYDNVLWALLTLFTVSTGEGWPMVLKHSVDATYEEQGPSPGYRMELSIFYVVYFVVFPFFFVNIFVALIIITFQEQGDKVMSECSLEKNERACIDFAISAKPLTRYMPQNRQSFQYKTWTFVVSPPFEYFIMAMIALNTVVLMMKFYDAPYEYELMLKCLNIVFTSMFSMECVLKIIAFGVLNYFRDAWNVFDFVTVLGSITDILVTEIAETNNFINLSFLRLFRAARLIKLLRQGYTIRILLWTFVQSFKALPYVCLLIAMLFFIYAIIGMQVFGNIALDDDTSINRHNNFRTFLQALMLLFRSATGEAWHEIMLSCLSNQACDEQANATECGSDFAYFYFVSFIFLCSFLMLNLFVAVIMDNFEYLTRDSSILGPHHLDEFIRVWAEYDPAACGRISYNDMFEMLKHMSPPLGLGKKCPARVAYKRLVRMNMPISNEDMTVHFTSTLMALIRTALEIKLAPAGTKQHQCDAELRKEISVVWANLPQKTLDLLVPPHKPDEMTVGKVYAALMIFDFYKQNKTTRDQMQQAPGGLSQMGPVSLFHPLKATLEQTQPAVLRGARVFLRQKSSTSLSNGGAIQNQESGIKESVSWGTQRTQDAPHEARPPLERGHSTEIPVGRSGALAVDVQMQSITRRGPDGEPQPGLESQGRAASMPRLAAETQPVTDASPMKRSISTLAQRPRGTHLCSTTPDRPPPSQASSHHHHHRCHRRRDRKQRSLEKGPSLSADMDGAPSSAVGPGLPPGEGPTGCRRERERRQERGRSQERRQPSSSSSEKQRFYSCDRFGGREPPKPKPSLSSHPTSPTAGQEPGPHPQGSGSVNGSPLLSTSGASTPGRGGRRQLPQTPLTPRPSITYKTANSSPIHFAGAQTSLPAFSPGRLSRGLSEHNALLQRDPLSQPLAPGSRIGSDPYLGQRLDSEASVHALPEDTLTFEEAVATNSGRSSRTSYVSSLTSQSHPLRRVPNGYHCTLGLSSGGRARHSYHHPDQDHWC
Sequence (P54284 whole entry partner): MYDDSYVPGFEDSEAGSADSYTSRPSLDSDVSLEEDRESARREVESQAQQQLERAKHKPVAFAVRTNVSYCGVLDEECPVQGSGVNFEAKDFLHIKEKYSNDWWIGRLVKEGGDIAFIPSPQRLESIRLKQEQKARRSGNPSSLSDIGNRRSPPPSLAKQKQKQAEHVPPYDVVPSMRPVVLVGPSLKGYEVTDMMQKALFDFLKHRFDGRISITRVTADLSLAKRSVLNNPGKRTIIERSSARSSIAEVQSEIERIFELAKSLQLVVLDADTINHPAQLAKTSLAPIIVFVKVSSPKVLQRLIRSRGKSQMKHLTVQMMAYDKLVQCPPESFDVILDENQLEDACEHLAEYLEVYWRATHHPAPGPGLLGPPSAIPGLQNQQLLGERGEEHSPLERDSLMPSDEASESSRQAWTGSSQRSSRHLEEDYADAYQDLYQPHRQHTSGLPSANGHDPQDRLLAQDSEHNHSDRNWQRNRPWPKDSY
Sequence (P54289 25-946 partner limits assumed): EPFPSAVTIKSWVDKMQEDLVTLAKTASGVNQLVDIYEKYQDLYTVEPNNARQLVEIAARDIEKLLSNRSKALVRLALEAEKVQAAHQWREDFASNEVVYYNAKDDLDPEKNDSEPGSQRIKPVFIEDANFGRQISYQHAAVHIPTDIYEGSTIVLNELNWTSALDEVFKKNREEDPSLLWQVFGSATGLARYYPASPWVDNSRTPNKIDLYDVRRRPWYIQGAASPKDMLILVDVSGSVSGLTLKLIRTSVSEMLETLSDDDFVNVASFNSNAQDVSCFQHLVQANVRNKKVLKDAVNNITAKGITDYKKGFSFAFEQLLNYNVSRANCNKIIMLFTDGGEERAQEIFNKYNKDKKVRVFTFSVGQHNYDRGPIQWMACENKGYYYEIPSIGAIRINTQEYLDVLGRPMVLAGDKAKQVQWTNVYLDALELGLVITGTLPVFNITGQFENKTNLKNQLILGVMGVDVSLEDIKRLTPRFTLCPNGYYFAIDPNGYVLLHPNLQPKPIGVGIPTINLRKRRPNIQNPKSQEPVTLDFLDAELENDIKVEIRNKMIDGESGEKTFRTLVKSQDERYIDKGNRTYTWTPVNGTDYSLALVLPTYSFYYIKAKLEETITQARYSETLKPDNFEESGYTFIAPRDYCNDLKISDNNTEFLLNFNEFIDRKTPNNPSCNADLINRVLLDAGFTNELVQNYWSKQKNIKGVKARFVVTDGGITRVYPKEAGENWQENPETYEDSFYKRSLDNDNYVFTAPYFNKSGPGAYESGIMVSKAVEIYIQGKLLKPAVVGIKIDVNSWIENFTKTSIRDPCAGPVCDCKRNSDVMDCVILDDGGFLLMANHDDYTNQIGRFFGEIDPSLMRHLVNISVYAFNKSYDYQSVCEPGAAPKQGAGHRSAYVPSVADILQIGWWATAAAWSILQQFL
Sequence (P54289 947-1103 partner limits assumed): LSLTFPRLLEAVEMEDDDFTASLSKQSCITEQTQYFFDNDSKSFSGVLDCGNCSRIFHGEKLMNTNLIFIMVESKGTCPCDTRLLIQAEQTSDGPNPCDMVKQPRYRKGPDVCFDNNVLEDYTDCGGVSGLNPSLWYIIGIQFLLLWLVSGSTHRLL
Counter-ions that a name gives are not always drawn.
IC50 listing for selected molecules.

Illustrative cases are given below, each with its answer.
CN1C[C@@H]2C[C@H]1CN2Cc1nnnn1-c1ccc(C(F)(F)F)cc1 [Compound 98, hydrochloride]: ≤ 31.6 µM
CC1(C)COCCN1Cc1nnnn1-c1cccc(C(F)(F)F)c1: ≤ 10 µM

The record that follows has no IC50 shown yet.
Query: Name the reported IC50 value associated with the molecule CC(C)C(=O)N1CCN(Cc2nnnn2-c2ccc(C#N)c(C(F)(F)F)c2)CC1
Reply: ≤ 3.16 µM

---

molecular target: human Cav2.2 α (α1B) subunit, along with the human β3 and α2δ1 auxiliary subunits (Homo sapiens); construct: expressed in transfected cells; experiment: hCav2.2 assay, IonWorks planar array electrophysiology in stable HEK293 cell line; assay type: cell-based; details: inhibition by 50% of current elicited by the 1st depolarising pulse; HEK293 cells; read-out: tonic pIC50 (converted)
Structures can show the parent of a compound that is named as a salt.
reported_endpoint: IC50

Illustrative cases are given below, each with its answer.
N#CC1CCN(Cc2nnnn2-c2cccc(C(F)(F)F)c2)C1 (stereo not drawn) [Compound 24, hydrochloride]: ≤ 31.6 µM
C[C@@H]1CN(Cc2nnnn2-c2cccc(C(F)(F)F)c2)C[C@H](C)O1: ≤ 31.6 µM
FC(F)(F)c1cc(-n2nnnc2CN2C[C@@H]3C[C@H]2CO3)ccc1Cl [Compound 110, hydrochloride]: ≤ 10 µM
CC1C(=O)N(C)CCN1Cc1nnnn1-c1cccc(C(F)(F)F)c1 (stereo not drawn): 63.1 µM
CC(=O)N1CCN(Cc2nnnn2-c2ccc(C#N)c(C(F)(F)F)c2)CC1: ≤ 3.16 µM

Query: Name the reported IC50 value associated with the compound C[C@@H]1COC[C@H](C)N1Cc1nnnn1-c1cccc(C(F)(F)F)c1 [Compound 64, hydrochloride]
Reply: ≤ 31.6 µM

Query: Name the reported IC50 value associated with the compound CCS(=O)(=O)N1CCN(Cc2nnnn2-c2ccc(C#N)cc2)CC1
Reply: ≤ 31.6 µM

Query: Name the reported IC50 value associated with the compound C[C@@H]1CN(Cc2nnnn2-c2ccc(Cl)cc2)C[C@H](C)O1
Reply: ≤ 31.6 µM

Query: Name the reported IC50 value associated with the compound C[C@@H]1COCCN1Cc1nnnn1-c1cccc(C(F)(F)F)c1 [Compound 25, hydrochloride]
Reply: ≤ 3.16 µM

Query: Name the reported IC50 value associated with the compound C[C@@H]1CN(S(C)(=O)=O)C[C@H](C)N1Cc1nnnn1-c1ccc(C#N)c(C(F)(F)F)c1
Reply: ≤ 3.16 µM

Query: Name the reported IC50 value associated with the compound CCN1CCN(Cc2nnnn2-c2cccc(C(F)(F)F)c2)[C@H](C)C1 [Compound 92, hydrochloride]
Reply: ≤ 31.6 µM

Query: Name the reported IC50 value associated with the compound CCS(=O)(=O)N1CCN(Cc2nnnn2-c2ccc(C(F)(F)F)cc2)CC1
Reply: ≤ 10 µM

Query: Name the reported IC50 value associated with the compound N#Cc1ccc(-n2nnnc2CN2CCOCC2)cc1C(F)(F)F [Compound 34, hydrochloride]
Reply: ≤ 31.6 µM

Query: Name the reported IC50 value associated with the compound FCC12CCCN1CCN(Cc1nnnn1-c1ccc(C(F)(F)F)cc1)C2 (stereo not drawn)
Reply: ≤ 31.6 µM

Query: Name the reported IC50 value associated with the compound C[C@@H]1COCCN1Cc1nnnn1-c1ccc(C(F)(F)F)cn1
Reply: ≤ 31.6 µM

Query: Name the reported IC50 value associated with the compound Cc1c(-n2nnnc2CN2C[C@@H]3C[C@H]2CO3)ccc(C#N)c1C(F)(F)F [Compound 129, hydrochloride]
Reply: ≤ 31.6 µM

Query: Name the reported IC50 value associated with the compound C[C@@H]1COCCN1Cc1nnnn1-c1ccc(C(F)(F)F)cc1 [Compound 28, hydrochloride]
Reply: ≤ 3.16 µM

Query: Name the reported IC50 value associated with the compound Clc1ccc(-n2nnnc2CN2CCOCC2)cc1Cl
Reply: ≤ 10 µM

Query: Name the reported IC50 value associated with the compound FS(F)(F)(F)(F)c1ccc(-n2nnnc2CN2C[C@@H]3C[C@H]2CO3)cc1
Reply: ≤ 31.6 µM

Query: Name the reported IC50 value associated with the compound CS(=O)(=O)N1CCN(Cc2nnnn2-c2cccc(C(F)(F)F)c2)CC1
Reply: ≤ 10 µM
